MEASURED_TARGET: JHR (GCE:TAI) (Drosophila melanogaster, UniProt Q9VXW7)
Sequence (Q9VXW7 1-959): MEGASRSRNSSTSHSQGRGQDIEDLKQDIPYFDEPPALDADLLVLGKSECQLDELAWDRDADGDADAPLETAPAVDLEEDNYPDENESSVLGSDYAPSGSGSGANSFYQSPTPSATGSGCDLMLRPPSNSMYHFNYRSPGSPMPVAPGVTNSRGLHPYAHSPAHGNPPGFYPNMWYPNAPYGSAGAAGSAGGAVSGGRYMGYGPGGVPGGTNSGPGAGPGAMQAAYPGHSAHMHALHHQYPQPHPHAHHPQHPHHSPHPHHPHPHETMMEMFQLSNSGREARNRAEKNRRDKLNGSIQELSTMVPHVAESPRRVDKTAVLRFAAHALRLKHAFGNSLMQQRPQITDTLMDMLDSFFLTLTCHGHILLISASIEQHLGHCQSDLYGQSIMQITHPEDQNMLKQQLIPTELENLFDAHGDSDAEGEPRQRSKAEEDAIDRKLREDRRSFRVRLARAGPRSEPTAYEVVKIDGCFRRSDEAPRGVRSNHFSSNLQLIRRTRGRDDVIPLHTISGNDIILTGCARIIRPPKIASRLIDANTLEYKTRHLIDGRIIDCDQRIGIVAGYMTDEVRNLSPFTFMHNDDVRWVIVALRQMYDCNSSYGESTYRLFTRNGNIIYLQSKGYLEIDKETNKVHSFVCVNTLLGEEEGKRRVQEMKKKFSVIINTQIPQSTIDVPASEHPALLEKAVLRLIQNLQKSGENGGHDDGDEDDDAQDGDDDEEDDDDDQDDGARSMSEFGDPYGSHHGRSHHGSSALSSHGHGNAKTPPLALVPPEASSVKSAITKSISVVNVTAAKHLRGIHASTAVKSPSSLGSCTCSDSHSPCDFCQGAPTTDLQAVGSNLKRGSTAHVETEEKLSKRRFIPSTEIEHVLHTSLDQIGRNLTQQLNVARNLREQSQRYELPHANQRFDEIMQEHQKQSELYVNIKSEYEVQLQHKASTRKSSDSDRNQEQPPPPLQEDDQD
Sequence (Q9VLD9 1-2026 partner): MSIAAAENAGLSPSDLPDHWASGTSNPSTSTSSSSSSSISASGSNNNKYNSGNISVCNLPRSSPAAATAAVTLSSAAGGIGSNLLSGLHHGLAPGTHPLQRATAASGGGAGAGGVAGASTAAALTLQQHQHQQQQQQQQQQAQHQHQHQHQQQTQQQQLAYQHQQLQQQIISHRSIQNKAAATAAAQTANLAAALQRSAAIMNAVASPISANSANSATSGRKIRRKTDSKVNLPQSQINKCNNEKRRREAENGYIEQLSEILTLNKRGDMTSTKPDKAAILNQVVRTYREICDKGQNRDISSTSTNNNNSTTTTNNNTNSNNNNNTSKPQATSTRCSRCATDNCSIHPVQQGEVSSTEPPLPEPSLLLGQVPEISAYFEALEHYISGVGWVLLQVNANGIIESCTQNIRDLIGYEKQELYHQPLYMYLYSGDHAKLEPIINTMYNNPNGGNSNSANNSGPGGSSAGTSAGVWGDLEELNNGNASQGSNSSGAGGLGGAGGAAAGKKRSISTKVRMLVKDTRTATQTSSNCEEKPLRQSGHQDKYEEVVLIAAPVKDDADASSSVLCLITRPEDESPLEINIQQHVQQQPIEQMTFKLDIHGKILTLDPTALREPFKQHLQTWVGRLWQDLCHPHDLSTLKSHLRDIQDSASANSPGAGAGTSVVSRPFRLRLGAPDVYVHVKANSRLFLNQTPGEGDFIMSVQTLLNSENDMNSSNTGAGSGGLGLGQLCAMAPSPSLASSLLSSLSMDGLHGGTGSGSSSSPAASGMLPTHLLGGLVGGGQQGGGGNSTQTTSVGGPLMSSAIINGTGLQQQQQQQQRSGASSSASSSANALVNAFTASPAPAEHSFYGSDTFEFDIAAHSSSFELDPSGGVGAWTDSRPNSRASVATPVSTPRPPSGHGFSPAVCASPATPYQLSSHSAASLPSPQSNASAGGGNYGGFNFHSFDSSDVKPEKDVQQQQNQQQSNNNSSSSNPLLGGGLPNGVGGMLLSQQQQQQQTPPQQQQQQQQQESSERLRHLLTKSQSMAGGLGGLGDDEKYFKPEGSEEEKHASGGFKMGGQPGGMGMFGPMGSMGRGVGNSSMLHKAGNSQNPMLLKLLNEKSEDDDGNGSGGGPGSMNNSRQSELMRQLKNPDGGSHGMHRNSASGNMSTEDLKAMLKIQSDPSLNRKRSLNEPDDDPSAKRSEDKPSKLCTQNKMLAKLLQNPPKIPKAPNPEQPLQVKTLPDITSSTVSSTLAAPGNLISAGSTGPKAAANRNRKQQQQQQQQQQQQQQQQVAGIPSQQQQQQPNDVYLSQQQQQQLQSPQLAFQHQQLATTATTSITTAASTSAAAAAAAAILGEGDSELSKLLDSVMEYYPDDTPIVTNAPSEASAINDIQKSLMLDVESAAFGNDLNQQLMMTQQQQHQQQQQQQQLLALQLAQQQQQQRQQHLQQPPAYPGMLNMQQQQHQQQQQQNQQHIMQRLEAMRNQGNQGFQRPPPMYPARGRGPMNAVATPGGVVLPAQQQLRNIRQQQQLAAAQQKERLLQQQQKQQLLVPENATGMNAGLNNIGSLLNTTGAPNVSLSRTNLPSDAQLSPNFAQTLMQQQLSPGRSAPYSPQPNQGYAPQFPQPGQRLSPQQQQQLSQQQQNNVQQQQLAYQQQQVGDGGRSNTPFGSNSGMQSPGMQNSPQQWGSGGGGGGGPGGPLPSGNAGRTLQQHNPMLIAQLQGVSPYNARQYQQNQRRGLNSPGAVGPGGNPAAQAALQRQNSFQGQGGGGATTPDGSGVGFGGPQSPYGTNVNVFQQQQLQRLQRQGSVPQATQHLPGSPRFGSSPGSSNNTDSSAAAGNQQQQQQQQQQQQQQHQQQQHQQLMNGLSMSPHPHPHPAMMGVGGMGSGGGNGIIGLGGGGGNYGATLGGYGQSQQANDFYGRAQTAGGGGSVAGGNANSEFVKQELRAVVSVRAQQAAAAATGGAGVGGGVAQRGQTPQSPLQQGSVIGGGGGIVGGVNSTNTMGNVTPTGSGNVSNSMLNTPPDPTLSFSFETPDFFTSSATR
MEASUREMENT_NOTES: cell-based
RECORDED_CONDITIONS: Drosophila Kc167, read-out: JHR Efficacy [%]
METRIC: Emax (%)

MOLECULE: OC(COc1ccc2cc(Br)ccc2c1)Cn1cccn1 (stereo not drawn)
UNIT_INFO: %
Emax: 70
--
MOLECULE: Cc1c(C(=O)NCCc2cccnc2)oc2ccc(F)cc12
UNIT_INFO: %
Emax: 126
--
MOLECULE: O=C(NCCCn1cccn1)c1ccc(C2CCCCC2)cc1
UNIT_INFO: %
Emax: 76
--
MOLECULE: CC(NC(=O)CSCc1ccccc1)c1ccc(-n2ccnc2)cc1 (stereo not drawn)
UNIT_INFO: %
Emax: 109
--
MOLECULE: O=C(CCSc1nnc2ccccn12)NC(=O)NCc1ccccc1
UNIT_INFO: %
Emax: 83
--
MOLECULE: CC(Sc1nccn1C)C(=O)Nc1nc(-c2ccccc2)cs1 (stereo not drawn)
UNIT_INFO: %
Emax: 110
--
MOLECULE: CC(COc1ccc(Oc2ccccc2)cc1)Oc1ccccn1 (stereo not drawn)
UNIT_INFO: %
Emax: 62

[I] O=C(Nc1ccc(-c2nccs2)cc1)c1ccccc1C(F)(F)F
[II] Cc1csc(CCNC(=O)c2cnc(-c3ccccc3)nc2)n1
I'm curious whether I or II has the smaller Emax number. Which is it? // return label of chosen record
I

###

MEASURED_TARGET: human AHR (Homo sapiens, UniProt P35869)
Sequence (P35869 11-848): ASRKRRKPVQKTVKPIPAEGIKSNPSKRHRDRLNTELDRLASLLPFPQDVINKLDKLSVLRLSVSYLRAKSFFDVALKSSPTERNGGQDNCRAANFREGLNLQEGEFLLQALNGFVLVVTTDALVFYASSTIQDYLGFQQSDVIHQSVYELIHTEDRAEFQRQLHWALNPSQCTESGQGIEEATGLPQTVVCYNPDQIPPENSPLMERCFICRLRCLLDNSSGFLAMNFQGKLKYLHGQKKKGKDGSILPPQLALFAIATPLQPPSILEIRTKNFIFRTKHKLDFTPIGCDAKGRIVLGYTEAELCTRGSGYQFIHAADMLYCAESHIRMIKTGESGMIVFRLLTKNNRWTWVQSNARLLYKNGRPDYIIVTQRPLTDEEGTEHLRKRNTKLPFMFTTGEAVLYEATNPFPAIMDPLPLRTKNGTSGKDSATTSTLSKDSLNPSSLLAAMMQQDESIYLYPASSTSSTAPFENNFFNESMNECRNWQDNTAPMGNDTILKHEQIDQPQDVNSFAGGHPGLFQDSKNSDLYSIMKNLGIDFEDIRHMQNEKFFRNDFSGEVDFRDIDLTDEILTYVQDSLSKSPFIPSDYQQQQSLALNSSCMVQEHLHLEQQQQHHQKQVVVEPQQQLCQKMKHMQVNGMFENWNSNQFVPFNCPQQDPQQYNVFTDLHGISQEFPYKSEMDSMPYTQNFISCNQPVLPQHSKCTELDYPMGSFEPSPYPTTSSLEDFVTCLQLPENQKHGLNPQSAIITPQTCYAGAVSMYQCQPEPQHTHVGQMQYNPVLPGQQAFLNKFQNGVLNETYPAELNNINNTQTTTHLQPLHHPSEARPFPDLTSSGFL
Sequence (P27540 2-789 partner): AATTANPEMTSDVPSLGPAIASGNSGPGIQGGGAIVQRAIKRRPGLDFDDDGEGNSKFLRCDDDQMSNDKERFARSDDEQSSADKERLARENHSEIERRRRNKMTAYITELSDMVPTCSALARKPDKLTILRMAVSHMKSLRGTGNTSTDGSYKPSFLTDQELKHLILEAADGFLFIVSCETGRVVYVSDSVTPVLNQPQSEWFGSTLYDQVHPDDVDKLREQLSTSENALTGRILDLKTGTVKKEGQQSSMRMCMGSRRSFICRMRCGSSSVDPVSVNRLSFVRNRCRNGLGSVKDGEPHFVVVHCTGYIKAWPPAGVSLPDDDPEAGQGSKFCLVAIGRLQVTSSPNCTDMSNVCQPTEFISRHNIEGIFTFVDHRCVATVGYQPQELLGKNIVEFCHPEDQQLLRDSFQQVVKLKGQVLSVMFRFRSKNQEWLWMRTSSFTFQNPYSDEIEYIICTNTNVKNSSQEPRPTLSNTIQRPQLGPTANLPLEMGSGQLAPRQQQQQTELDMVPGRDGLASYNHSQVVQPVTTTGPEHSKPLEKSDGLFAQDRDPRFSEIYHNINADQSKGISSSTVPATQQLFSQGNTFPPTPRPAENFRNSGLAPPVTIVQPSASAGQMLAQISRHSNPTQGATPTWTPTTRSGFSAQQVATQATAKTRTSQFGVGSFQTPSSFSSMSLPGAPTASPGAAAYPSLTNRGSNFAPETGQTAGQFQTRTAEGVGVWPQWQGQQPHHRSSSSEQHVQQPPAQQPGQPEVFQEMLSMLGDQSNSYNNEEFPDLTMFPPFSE
MEASUREMENT_NOTES: cell-based
Set-up: species or system HepG2 (AZ-AHR)
RECORDED_CONDITIONS: HepG2, read-out: AHR Efficacy [%]
METRIC: Emax (%)

Some entries whose results are on file:
COMPOUND: CC(Sc1nccn1C)C(=O)Nc1nc(-c2ccccc2)cs1 (stereo not drawn)
RESULT_NUMBER: 103

COMPOUND: CC(NC(=O)CSCc1ccccc1)c1ccc(-n2ccnc2)cc1 (stereo not drawn)
RESULT_NUMBER: 45

[1] Cc1csc(CCNC(=O)c2cnc(-c3ccccc3)nc2)n1
[2] O=C(NCCCn1cccn1)c1ccc(C2CCCCC2)cc1
Would you let me know which has the greater Emax value, 1 or 2 ? // return label of chosen record
1

[P] Cc1c(C(=O)NCCc2cccnc2)oc2ccc(F)cc12
[Q] OC(COc1ccc2cc(Br)ccc2c1)Cn1cccn1 (stereo not drawn)
Would you let me know which has the greater Emax value, P or Q ? // return label of chosen record
P
(P: 87%, Q: 19%)

###

MEASURED_TARGET: JHR (GCE:TAI) (Drosophila melanogaster, UniProt Q9VXW7)
MEASUREMENT_NOTES: cell-based
RECORDED_CONDITIONS: Drosophila Kc167, read-out: JHR Efficacy [%]
*1 amine or outer side, *2 acyl side, *3 side chain or, on linkers, in order; H or OH if unused. Where a SMILES comes first, the peptide text is derived from it. [ ]: non-standard residue; d: D form. The star is where a group is joined. X1 = Cc1nc(N[*:1])sc1-c1cc(C(=O)[*:2])n[nH]1; Bz = O=C(c1ccccc1)*
METRIC: Emax (%)

[I] CN(C(=O)CN1CCOC(c2nccs2)C1)c1nccs1 (centres unmarked)
[II] Cc1c(C(=O)Nc2ccc3ncccc3c2)sc2ccccc12
I'm curious whether I or II has the smaller Emax number. Which is it? // return label of chosen record
II

[I] Cc1nc(NC(=O)c2ccccc2)sc1-c1cc(C(=O)NCC(=O)N[C@H](CCCN=C(N)N)C(=O)NCC(=O)N[C@H](CC(=O)O)C(=O)N[C@H](CC(=O)O)C(=O)N[C@H](CC(=O)O)C(N)=O)n[nH]1 [cmpd 2.1] (Bz-[X1]G[dR]G[dD][dD][dD]-NH2)
[II] CC(C)c1c(C(=O)NCC2CCCO2)nnn1-c1ccc(Br)cc1 (centres unmarked)
I'm curious whether I or II has the smaller Emax number. Which is it? // return label of chosen record
I
(I: 143%, II: 254%)
